Values were extracted from PubChem BioAssay.

- protocolNotes: HepG2 cell viability effects, profiling panel, calcein-AM fluorescence, 48 h, basal (AID 1164); further: test concentration not given here
- particulars: higher = more signal
Assign class by z-score: not lower than 0.5 means Condition met; lower than 0.5 means Condition not met.

Request: # check: z-score of "C=C(C)C(=O)OC[C@@H]1CN2[C@@H](CC[C@@H](C)[C@@H]2c2ccc(Br)cc2)C(=O)O1" is greater than or equal to 0.5
Result: Condition met

Request: # check: z-score of "CCN1C(=O)[C@H]2[C@H]3[C@H](O)[C@H](O)CC(=NNC(=O)OCc4ccc(OC)cc4)[C@H]3CC[C@H]2C1=O" is greater than or equal to 0.5
Result: Condition met

Request: # check: z-score of Cc1cc2c(nc1C)CCCN2CC(C)ON=C[C@@H](C)[C@H](OCc1ccccc1)C(C)C (stereo not given in full) is greater than or equal to 0.5
Result: Condition not met

Request: # check: z-score of "CCOC(=O)CCN1C(=O)[C@H]2[C@H]3[C@H](O)[C@H](O)CC(=NNC(=O)OCC)[C@@H]3CC[C@H]2C1=O" is greater than or equal to 0.5
Result: Condition not met

Request: # check: z-score of "C#CCCCON=C1C[C@@H](O)[C@@H](O)[C@@H]2[C@@H]3C(=O)N(C4CCCCC4)C(=O)[C@@H]3CC[C@H]12" is greater than or equal to 0.5
Result: Condition met

Request: # check: z-score of CCOC(=O)[C@H](CC(C)C)NC(=O)CCC1CC(OC(=O)NCc2cccc3ccccc23)CC2(CCCC(COC(=O)NCc3ccccc3)O2)O1 (stereo not given in full) is greater than or equal to 0.5
Result: Condition not met

Request: # check: z-score of "CC(C)=NOC[C@@H](O)COCc1ccco1" is greater than or equal to 0.5
Result: Condition met

Request: # check: z-score of "CC(C)CCN1CCc2nc(-c3ccccc3)c3c(c2C1)CO[C@@H](C)C3" is greater than or equal to 0.5
Result: Condition met

Request: # check: z-score of "CC(C)=CCCC(C)=CCON=C1C[C@@H](O)[C@@H](O)[C@@H]2[C@@H]3C(=O)N([C@@H](C)c4ccccc4)C(=O)[C@@H]3CC[C@H]12" is greater than or equal to 0.5
Result: Condition not met

Request: # check: z-score of "CC(C)C(=O)N[C@@H]1CCCN1C(=O)C=Cc1ccccc1" is greater than or equal to 0.5
Result: Condition met

Request: # check: z-score of "C[C@@H](ON=C1[C@H]2CCn3c(=O)n(-c4ccccc4)c(=O)n3[C@H]2[C@H](O)[C@@H]2O[C@H]12)c1cn([C@H](CO)Cc2ccccc2)nn1" is greater than or equal to 0.5
Result: Condition met

Request: # check: z-score of "COc1ccc(COC(=O)NN=C2C[C@@H](O)[C@@H](O)[C@@H]3[C@@H]4C(=O)N(C(C)(C)C)C(=O)[C@@H]4CC[C@H]23)cc1" is greater than or equal to 0.5
Result: Condition met

Request: # check: z-score of "CC(=O)OC[C@H]1O[C@H](C#CC(C)(C)C)C=C[C@@H]1OC(C)=O" is greater than or equal to 0.5
Result: Condition not met

Request: # check: z-score of "CO[C@H]1COC(=O)CC=C[C@@H](C)COC(=O)[C@@H](OCc2ccccc2)C=C[C@@H]1C" is greater than or equal to 0.5
Result: Condition met

Request: # check: z-score of "CCCNC(=O)OC[C@H]1O[C@H](CCON=C(C)CCC(=O)OC[C@H]2O[C@H](C#Cc3ccccc3)C=C[C@@H]2Oc2ccc(C)cc2)C=C[C@@H]1Oc1ccc(OC)cc1" is greater than or equal to 0.5
Result: Condition not met

----------
Task for the reader: assign each of the following compounds its reported z-score.
- protocolNotes: E. coli acrAB mutant growth effects, primary screen, E. coli filamentation inducers, strain DRC39, OD650, 24 h (AID 1178);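 further: growth measured as culture turbidity by optical density at 650 nm; test concentration not given here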
- particulars: higher = more signal, called active from +8 up or from −8 down
Please give the numeric answer without any surrounding text.

Request: Using the record for "CC(C)CCN1CCc2nc(-c3ccccc3)c3c(c2C1)CO[C@@H](C)C3" , state its measured z-score.
Result: 0.66

Request: Using the record for "C#CCCCON=C1C[C@@H](O)[C@@H](O)[C@@H]2[C@@H]3C(=O)N(C4CCCCC4)C(=O)[C@@H]3CC[C@H]12" , state its measured z-score.
Result: 0.331

Request: Using the record for "C=C(C)C(=O)OC[C@@H]1CN2[C@@H](CC[C@@H](C)[C@@H]2c2ccc(Br)cc2)C(=O)O1" , state its measured z-score.
Result: 0.513

Request: Using the record for "CC(C)C(=O)N[C@@H]1CCCN1C(=O)C=Cc1ccccc1" , state its measured z-score.
Result: 0.595

Request: Using the record for "O=C(NN=C1C[C@@H](O)[C@@H](O)[C@@H]2[C@@H]3C(=O)N(Cc4ccc5c(c4)OCO5)C(=O)[C@@H]3CC[C@H]12)OCc1ccccc1" , state its measured z-score.
Result: 0.883

----------
- protocolNotes: small-molecule binders of probe aNOTCH2, primary screen, biochemical, small-molecule microarray, 635/667 nm fluorescence (AID 1121);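 further: score merges feature fluorescence read at 667 nm with its signal to noise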
- particulars: higher = more signal
Task for the reader: assign each of the following compounds its reported composite z-score.

Request: Using the record for "COc1ccc(COC(=O)NN=C2C[C@@H](O)[C@@H](O)[C@@H]3[C@@H]4C(=O)N(C(C)(C)C)C(=O)[C@@H]4CC[C@H]23)cc1" , state its measured composite z-score.
Result: -0.0001

Request: Using the record for "CC(C)C(=O)N[C@@H]1CCCN1C(=O)C=Cc1ccccc1" , state its measured composite z-score.
Result: -0.14

Request: Using the record for "CCCNC(=O)OC[C@H]1O[C@H](CCON=C(C)CCC(=O)OC[C@H]2O[C@H](C#Cc3ccccc3)C=C[C@@H]2Oc2ccc(C)cc2)C=C[C@@H]1Oc1ccc(OC)cc1" , state its measured composite z-score.
Result: -0.141

Request: Using the record for "CCOC(=O)NN=C1C[C@@H](O)[C@@H](O)[C@@H]2[C@@H]3C(=O)N(Cc4ccc5c(c4)OCO5)C(=O)[C@@H]3CC[C@@H]12" , state its measured composite z-score.
Result: -0.0349

Request: Using the record for "CCN1C(=O)[C@H]2[C@H]3[C@H](O)[C@H](O)CC(=NOC)[C@@H]3CC[C@H]2C1=O" , state its measured composite z-score.
Result: -0.0681

Request: Using the record for "CC(C)=NOCc1ccc(-c2cn([C@@H]3COC[C@H]3O)nn2)cc1" , state its measured composite z-score.
Result: -0.131

Request: Using the record for CCOC(=O)[C@H](CC(C)C)NC(=O)CCC1CC(OC(=O)NCc2cccc3ccccc23)CC2(CCCC(COC(=O)NCc3ccccc3)O2)O1 (some centres not stated) , state its measured composite z-score.
Result: -0.152

----------
Task for the reader: assign each of the following molecules its reported z-score.
- protocolNotes: HepG2 liver cancer cell viability effects, profiling panel, resazurin fluorescence, 24 h, PK04 Diversity Set (AID 1172); further: test concentration not given here
- particulars: higher = more signal
Please give the numeric answer without any surrounding text.

Request: Using the record for "CC(C)CCN1CCc2nc(-c3ccccc3)c3c(c2C1)CO[C@@H](C)C3" , state its measured z-score.
Result: -0.123

Request: Using the record for "CCN1C(=O)[C@H]2[C@H]3[C@H](O)[C@H](O)CC(=NOC)[C@@H]3CC[C@H]2C1=O" , state its measured z-score.
Result: 0.146

Request: Using the record for "C[C@@H]1CC[C@@H](C(=O)O)N[C@H]1c1ccc(-c2ccco2)cc1" , state its measured z-score.
Result: 0.443

Request: Using the record for "CO[C@H]1COC(=O)CC=C[C@@H](C)COC(=O)[C@@H](OCc2ccccc2)C=C[C@@H]1C" , state its measured z-score.
Result: 0.537

Request: Using the record for CCOC(=O)[C@H](Cc1ccccc1)NC(=O)CCC1CC(OC(=O)NCc2cccc3ccccc23)CC2(CCCC(COC(=O)NCCCN3CCCC3=O)O2)O1 (stereo partly drawn) , state its measured z-score.
Result: 0.968

Request: Using the record for "C#CCCCON=C1C[C@@H](O)[C@@H](O)[C@@H]2[C@@H]3C(=O)N(C4CCCCC4)C(=O)[C@@H]3CC[C@H]12" , state its measured z-score.
Result: -0.477

Request: Using the record for "CO[C@H]1COC(=O)[C@H](C)NC(=O)CC=C[C@@H](C)[C@H](OC)COC(=O)CC=C[C@@H]1C" , state its measured z-score.
Result: 0.322

Request: Using the record for "CC(=O)OC[C@H]1O[C@H](C#CC(C)(C)C)C=C[C@@H]1OC(C)=O" , state its measured z-score.
Result: -0.374
